Each recorded value in this set is attributed to patent US6358885B1.

tested on: rape; test: Test B preemergence/postemergence greenhouse plant response rating 0 to 10; assay type: in vivo, Brassica napus; conditions: Rate 200 g/ha, PREEMERGENCE; 0 to 10 scale
Quick rule: Plant response rating, Rape of at least 7 means true, below that means false.

>>> qualitative_label("C#CC(C)Oc1cc(-c2nn3c(c2Cl)CCCC3)c(F)cc1Cl (centres unmarked) [Compound 36]")
"true"
>>> qualitative_label("CCCOc1cc(-c2nn3c(c2Cl)CCCC3)c(F)cc1Cl [Compound 23]")
"false"
>>> qualitative_label("Clc1ccc(-c2nc3n(c2Cl)CCC=C3)c(Cl)c1 [Compound 1]")
"false"
>>> qualitative_label("Fc1cc(Cl)c(OC2CCCC2)cc1-c1nn2c(c1Cl)CCCC2 [Compound 24]")
"true"
>>> qualitative_label("Fc1cc(Cl)c(OCCCl)cc1-c1nn2c(c1Cl)CCCC2 [Compound 49]")
"false"
>>> qualitative_label("CC(C)OC(=O)c1cc(-c2nn3c(c2Cl)CCCC3)c(F)cc1Cl [Compound 44]")
"true"
>>> qualitative_label("CC(C)COc1cc(-c2nn3c(c2Cl)CCCC3)c(F)cc1Cl [Compound 30]")
"false"
>>> qualitative_label("C=CCOc1cc(-c2nn3c(c2Br)CCCC3)c(F)cc1Cl [Compound 37]")
"false"
>>> qualitative_label("CCC(C)Oc1cc(-c2nn3c(c2Cl)CCCC3)c(F)cc1Cl (centres unmarked) [Compound 48]")
"true"
>>> qualitative_label("COc1cc(-c2nn3c(c2Cl)CCCC3)c(F)cc1Cl [Compound 29]")
"true"
